Biological target: T1, SurA (ATP-independent periplasmic chaperone) (UniProt P0ABZ6 21-428)
T1 sequence (looked up): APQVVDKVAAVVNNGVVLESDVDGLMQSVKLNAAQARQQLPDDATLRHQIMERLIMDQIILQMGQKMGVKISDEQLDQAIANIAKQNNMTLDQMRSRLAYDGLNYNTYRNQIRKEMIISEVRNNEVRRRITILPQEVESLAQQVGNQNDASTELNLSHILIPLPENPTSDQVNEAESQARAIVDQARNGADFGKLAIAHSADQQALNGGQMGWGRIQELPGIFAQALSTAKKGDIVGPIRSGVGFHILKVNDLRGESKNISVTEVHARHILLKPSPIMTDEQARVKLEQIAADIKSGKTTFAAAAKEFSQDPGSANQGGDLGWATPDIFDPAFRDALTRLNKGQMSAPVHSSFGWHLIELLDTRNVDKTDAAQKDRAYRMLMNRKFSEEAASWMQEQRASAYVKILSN

{"columns": ["binder", "Kd [µM]"],
 "data": [
  ["Im7, wild type, full length (natural protein, UniProt Q03708 1-87, looked up) MELKNSISDYTEAEFVQLLKEIEKENVAATDDVLDVLLEHFVKITEHPDGTDLIYYPSDNRDDSPEGIVKEIKEWRAANGKPGFKQG", 50]
]}
